Hey, just so you know, these numbers are from patent US11840574B2.

testedOn: Human DR5 (Homo sapiens, UniProt O14763)
protocolSummary: Binding affinity of antibody to human DR5 (BIAcore, CM5 chip)
cond: association rate, Human DR5, 1:1 Langmuir binding model
Method: In order to measure affinity, human DR5 was coupled to carboxylated dextran biosensor chips (CM5, GE) according to the manufacturer's instruction. Association and dissociation rates were assessed by injecting IgG proteins that were 2-fold serially diluted to 5 nM, 2.5 nM, 1.25 nM, 0.625 nM, 0.313 nM, and 0.156 nM. […]
measureName: Ka
Answer with the figure and its unit, nothing else.

DA4: humanized or deimmunized variant of parental clone D0; CDRs SEQ ID NO 1, 2, 7 / 4, 10, 13 (antibody, V domains shown) VH: EVQLVESGGGLVQPGGSLRLSCAASGFTFSSFNMLWVRQAPGKGLEWVAGIGKSDRYTGYGSAVKGRFTISRDDSKNTVYLQMNSLRAEDTAVYYCVRDAGSGCGSGGWTGACIDTWGQGTLVTVSS VL: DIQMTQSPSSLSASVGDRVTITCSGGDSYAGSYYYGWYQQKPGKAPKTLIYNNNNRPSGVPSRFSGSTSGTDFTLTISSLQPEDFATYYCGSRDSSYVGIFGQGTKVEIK :: 1.2e+06 M⁻¹ s⁻¹
DA9: humanized or deimmunized variant of parental clone D0; CDRs SEQ ID NO 1, 2, 7 / 4, 10, 13 (antibody, V domains shown) VH: EVQLVESGGGLVQPGGSLRLSCAASGFTFSSFNMLWVRQAPGKGLEWVAGIGKSDRYTGYGSAVKGRFTISRDDSKSTLYLQMNSLRAEDTAVYYCVRDAGSGCGSGGWTGACIDTWGQGTLVTVSS VL: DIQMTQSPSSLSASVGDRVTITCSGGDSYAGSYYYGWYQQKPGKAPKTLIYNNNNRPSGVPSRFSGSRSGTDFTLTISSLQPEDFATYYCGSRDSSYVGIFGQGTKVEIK :: 5.6e+06 M⁻¹ s⁻¹
DA5: humanized or deimmunized variant of parental clone D0; CDRs SEQ ID NO 1, 2, 7 / 4, 10, 13 (antibody, V domains shown) VH: EVQLVESGGGLVQPGGSLRLSCAASGFTFSSFNMLWVRQAPGKGLEWVAGIGKSDRYTGYGSAVKGRFTISRDDSKSTAYLQMNSLRAEDTAVYYCVRDAGSGCGSGGWTGACIDTWGQGTLVTVSS VL: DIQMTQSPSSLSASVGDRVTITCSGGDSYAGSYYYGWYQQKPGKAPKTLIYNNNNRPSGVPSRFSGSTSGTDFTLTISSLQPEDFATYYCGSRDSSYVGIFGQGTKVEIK :: 1.2e+06 M⁻¹ s⁻¹

Now let's try a different one.
Lookup: Reported Ka for DA1: humanized or deimmunized variant of parental clone D0; CDRs SEQ ID NO 1, 2, 7 / 4, 10, 13 (antibody, V domains shown) VH: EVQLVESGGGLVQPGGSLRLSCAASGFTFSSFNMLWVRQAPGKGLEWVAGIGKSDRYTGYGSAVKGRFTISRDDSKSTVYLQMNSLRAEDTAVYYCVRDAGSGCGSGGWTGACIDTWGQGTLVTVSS VL: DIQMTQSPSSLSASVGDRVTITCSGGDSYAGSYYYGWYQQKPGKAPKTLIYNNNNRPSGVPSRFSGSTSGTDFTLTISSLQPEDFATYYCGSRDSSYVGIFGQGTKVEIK : what is it?
Found: 4.9e+06 M⁻¹ s⁻¹
